- STUDY_TARGET: Cav3.2 channel (Homo sapiens, UniProt O95180)
- Construct: expressed in transfected cells; host or cells: HEK-293, tetracycline inducible expression system (Invitrogen)
- Sequence (O95180 whole entry): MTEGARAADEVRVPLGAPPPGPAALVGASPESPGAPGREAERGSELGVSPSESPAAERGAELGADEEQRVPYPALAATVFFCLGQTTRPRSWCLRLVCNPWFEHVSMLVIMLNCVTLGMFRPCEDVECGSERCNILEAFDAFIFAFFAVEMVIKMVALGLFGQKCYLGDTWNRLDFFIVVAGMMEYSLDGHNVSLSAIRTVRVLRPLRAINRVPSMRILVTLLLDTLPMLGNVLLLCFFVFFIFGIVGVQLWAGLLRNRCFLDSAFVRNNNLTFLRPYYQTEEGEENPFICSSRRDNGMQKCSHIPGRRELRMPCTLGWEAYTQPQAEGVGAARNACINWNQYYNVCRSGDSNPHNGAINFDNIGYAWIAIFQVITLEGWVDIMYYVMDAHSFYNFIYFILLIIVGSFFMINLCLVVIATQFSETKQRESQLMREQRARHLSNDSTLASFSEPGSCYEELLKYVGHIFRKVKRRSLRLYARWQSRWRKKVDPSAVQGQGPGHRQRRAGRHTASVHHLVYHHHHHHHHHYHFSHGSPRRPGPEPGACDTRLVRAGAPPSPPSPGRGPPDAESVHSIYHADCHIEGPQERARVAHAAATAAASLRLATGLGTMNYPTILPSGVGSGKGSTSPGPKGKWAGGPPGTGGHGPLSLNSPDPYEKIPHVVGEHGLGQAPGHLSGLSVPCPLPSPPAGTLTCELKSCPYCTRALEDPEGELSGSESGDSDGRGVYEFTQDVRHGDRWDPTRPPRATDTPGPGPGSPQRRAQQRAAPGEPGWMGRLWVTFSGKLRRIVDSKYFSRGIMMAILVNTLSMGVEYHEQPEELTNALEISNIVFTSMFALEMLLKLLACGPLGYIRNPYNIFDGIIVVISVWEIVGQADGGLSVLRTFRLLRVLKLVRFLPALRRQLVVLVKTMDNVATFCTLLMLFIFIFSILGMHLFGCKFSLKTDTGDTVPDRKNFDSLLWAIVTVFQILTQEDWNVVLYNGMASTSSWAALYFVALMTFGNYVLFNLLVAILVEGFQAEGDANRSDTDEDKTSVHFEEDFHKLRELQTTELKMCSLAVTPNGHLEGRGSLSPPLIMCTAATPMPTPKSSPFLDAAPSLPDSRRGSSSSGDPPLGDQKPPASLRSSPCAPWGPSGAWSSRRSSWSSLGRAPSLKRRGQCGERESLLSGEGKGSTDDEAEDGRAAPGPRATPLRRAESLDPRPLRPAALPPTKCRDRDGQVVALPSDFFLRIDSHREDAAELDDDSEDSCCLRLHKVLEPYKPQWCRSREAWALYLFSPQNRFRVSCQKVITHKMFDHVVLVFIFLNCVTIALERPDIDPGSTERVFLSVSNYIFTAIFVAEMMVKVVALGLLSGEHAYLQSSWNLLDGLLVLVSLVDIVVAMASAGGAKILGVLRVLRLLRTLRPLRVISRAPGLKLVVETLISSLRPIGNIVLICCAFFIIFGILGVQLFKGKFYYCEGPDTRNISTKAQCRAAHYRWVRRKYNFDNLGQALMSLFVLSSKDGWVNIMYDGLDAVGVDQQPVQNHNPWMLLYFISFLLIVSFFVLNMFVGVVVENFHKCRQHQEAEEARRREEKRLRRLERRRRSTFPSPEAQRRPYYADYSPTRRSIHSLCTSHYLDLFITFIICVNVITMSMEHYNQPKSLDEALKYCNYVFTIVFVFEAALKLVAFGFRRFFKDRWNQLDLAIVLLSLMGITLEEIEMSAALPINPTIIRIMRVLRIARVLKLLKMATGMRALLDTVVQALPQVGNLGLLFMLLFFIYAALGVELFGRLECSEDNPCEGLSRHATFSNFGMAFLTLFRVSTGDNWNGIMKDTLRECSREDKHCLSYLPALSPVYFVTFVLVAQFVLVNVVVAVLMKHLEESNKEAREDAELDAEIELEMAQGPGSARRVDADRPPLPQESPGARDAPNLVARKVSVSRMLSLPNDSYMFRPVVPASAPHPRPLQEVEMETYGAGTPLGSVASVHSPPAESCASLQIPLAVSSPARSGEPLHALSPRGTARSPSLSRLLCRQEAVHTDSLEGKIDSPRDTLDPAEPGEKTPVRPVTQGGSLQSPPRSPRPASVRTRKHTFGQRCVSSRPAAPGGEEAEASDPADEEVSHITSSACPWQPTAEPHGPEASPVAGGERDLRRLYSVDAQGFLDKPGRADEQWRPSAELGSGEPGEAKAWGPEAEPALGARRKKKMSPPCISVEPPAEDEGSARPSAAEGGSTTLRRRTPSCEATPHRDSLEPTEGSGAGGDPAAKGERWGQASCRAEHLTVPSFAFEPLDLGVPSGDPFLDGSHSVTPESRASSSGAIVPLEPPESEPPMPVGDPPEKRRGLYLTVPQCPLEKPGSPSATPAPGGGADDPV
- ASSAY_NOTES: Whole-cell patch clamp of T-type Cav3.2 channel expressed in HEK293 cells
- Type: cell-based
- RUN_CONDITIONS: HEK293; Table 1 primary screening; 1 μM
Give 1 (yes) when the value for inhibition at 1 µM is at least 40%. Give 0 (no) when it is less.

INSERT INTO results (molecule, category) VALUES
  ('CC(C)(C)CCN1CCC2(CC1)CC2NC(=O)c1ccccc1Cl (centres unmarked) [Example 20]', '0 (no)');

### Prompt In plain terms: is recorded inhibition at 1 µM at least 40% for O=C(CN1CCC(CNC(=O)c2ccccc2)CC1)NC1CCCCC1 [Example 100] ?
### Response 0 (no)

### Prompt In plain terms: is recorded inhibition at 1 µM at least 40% for O=C(CCc1cccc(Cl)c1)Nc1nnc(-c2ccc(Cl)s2)o1 [Example 118] ?
### Response 0 (no)

### Prompt In plain terms: is recorded inhibition at 1 µM at least 40% for O=C(Nc1cc(Cl)cc(Cl)c1)C1CC12CCN(CCc1ccccc1)CC2 (centres unmarked) [Example 92] ?
### Response 0 (no)

### Prompt In plain terms: is recorded inhibition at 1 µM at least 40% for O=S(=O)(NC1CC12CCN(CCc1ccccc1)CC2)c1cc(Cl)cc(Cl)c1 (centres unmarked) [Example 52] ?
### Response 0 (no)

### Prompt In plain terms: is recorded inhibition at 1 µM at least 40% for O=C(Cc1cccc(Cl)c1)Nc1nnc(-c2ccc(Cl)s2)o1 [Example 121] ?
### Response 1 (yes)

### Prompt In plain terms: is recorded inhibition at 1 µM at least 40% for O=C(CN1CCC(CO)(CNC(=O)c2ccccc2F)CC1)Nc1ccccc1 [Example 110] ?
### Response 1 (yes)

### Prompt In plain terms: is recorded inhibition at 1 µM at least 40% for CC(C)(C)NC(=O)CN1CCC(CNC(=O)CCc2cccc(Cl)c2)CC1 [Example 99] ?
### Response 1 (yes)

### Prompt In plain terms: is recorded inhibition at 1 µM at least 40% for O=C(NC1CCC12CCN(CCc1ccccc1)CC2)c1ccccc1 (centres unmarked) [Example 62] ?
### Response 1 (yes)

### Prompt In plain terms: is recorded inhibition at 1 µM at least 40% for CC(C)(C)CCN1CCC2(CC1)CC2NC(=O)c1ccc(Cl)cc1Cl (centres unmarked) [Example 23] ?
### Response 1 (yes)

### Prompt In plain terms: is recorded inhibition at 1 µM at least 40% for Cc1cc(C(=O)Nc2nnc(-c3ccccc3)o2)no1 [Example 122] ?
### Response 0 (no)

###

Entries and their pIC50
- STUDY_TARGET: Cav3.2 channel (Homo sapiens, UniProt O95180)
- Construct: expressed in transfected cells; host or cells: HEK-293, tetracycline inducible expression system (Invitrogen)
- ASSAY_NOTES: Whole-cell patch clamp of T-type Cav3.2 channel expressed in HEK293 cells
- Type: cell-based
- RUN_CONDITIONS: Table 1; tested at at least 4 concentrations; read-out: IC50
Entry type: numeric. Quantity: pIC50, the -log10 of concentration in molar units.

Known pIC50 results, listed for orientation:
INSERT INTO assay_data (molecule, readout_value) VALUES
  ('O=C(CN1CCC2(CC1)CC2NC(=O)c1cc(Cl)cc(Cl)c1)c1ccc(C(F)(F)F)cc1 (stereo not drawn)', 7.10),
  ('CC(C)(C)NC(=O)CN1CCC2(CC1)C[C@H]2NC(=O)c1cc(F)cc(C(F)(F)F)c1 (single isomer, unassigned)', 6.74);

### Prompt Given the entry CC(C)(C)CCN1CCC2(CC1)C[C@H]2NC(=O)c1cc(C(F)(F)F)cc(C(F)(F)F)c1 (single isomer, unassigned) , report its measured pIC50.
### Response 7.15
